Measured protein stability index values are reported for all entries that follow.
B1: RHOBTB3 (parent)
chain: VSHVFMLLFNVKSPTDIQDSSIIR

Variants of: B1
Assay: protein stability index of a GFP-peptide fusion (GPS, HEK-293T) (PSI 1-6); higher = more stable;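 note: lentivirally expressed fusions sorted by FACS into six bins by GFP to DsRed ratio, PSI derived from sequencing read proportions per bin multiplied by bin number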
Details: c terminus: a fixed tail appended
Provide a numeric answer; units are not to be included.

Variant descriptor	protein stability index
T15R	4.51
F9D	1.45
I22C	2.08
D16L	2.16
S21K	1.84
M6V	3.62

# input variant: S20Q ; wanted: its protein stability index
3.34
